# Test system: B16-F10 (NRAS mutation)
# Assay protocol: MTT cell viability assay, B16-F10 melanoma
# Type: cell-based
# Cond: Mus musculus, B16-F10, 24 h, 24 h, read-out: IC50 on cell viability, B16-F10 (NRAS mutation)
Measured endpoint: pIC50
One number for each entry, as −log10 of the molar value.

Hey, quick one: what's pIC50 for each of these?
1. C=C1C(=O)OC2CC3=C[C@@H](C/C(C)=C/C(OC(=O)/C=C(\C)C(C)C)[C@H]12)OC3=O (stereo partly shown) [DETD-12]
2. C=C1C(=O)OC2CC3=C[C@@H](C/C(C)=C/C(OC(=O)Cc4ccc(OC)cc4)[C@H]12)OC3=O (stereo partly shown) [DETD-44]
3. C=C1C(=O)OC2CC3=C[C@@H](C/C(C)=C/C(OC(=O)/C=C/c4ccc(C)cc4)[C@H]12)OC3=O (stereo partly shown) [DETD-27]

[out]
1. 5.14
2. 5.14
3. 5.32

###

# System: A2058 (BRAF mutation)
# Assay protocol: MTT cell viability assay, A2058 melanoma
# Type: cell-based, human
# Cond: Homo sapiens, A2058, 24 h
Kindly supply the reported IC50 values for the records listed here.
Give bare numbers, in µM.

As a guide, the following entries are already answered.
C=C1C(=O)OC2CC3=C[C@@H](C/C(C)=C/C(OC(=O)/C=C/c4ccc(Cl)cc4)[C@H]12)OC3=O (stereo partly shown); 4.4
C=C1C(=O)OC2CC3=C[C@@H](C/C(C)=C/[C@@H](OC(=O)C(C)(OC)c4ccc5ccccc5c4)[C@H]12)OC3=O (stereo partly shown); 6.1

Could you now look at the following compound, please?
Field IC50 (entry C=C1C(=O)OC2CC3=C[C@@H](C/C(C)=C/[C@@H](OC(=O)[C@@H](OC)c4ccc5ccccc5c4)[C@H]12)OC3=O (stereo partly shown) ) reads 5.2

###

Kindly supply the reported pIC50 values for the records listed here.
# System: U937 lymphoma line
# Assay protocol: MTT cell viability assay, U937
# Type: cell-based
# Cond: Homo sapiens, U-937, 24 h
Answers are plain numbers, as −log10 of the molar value.

Hey, quick one: what's pIC50 for each of these?
1. C=C1C(=O)O[C@H]2CC3=C[C@@H](C/C(C)=C/[C@@H](OC(=O)Cc4cccc5ccccc45)[C@H]12)OC3=O
2. C=C1C(=O)O[C@H]2CC3=C[C@@H](C/C(C)=C/[C@@H](OC(=O)/C=C/c4ccccc4)[C@H]12)OC3=O
3. C=C1C(=O)OC2CC3=C[C@@H](C/C(C)=C/C(OC(=O)/C=C/c4cccc(OC)c4)[C@H]12)OC3=O (some centres unmarked)

[out]
[6.74, 6.74, 7.00]

Hey, quick one: what's pIC50 for each of these?
1. C=C(C)C(=O)O[C@H]1CC2=C[C@@H](C/C(C)=C/[C@H]3OC(=O)C(=C)[C@H]13)OC2=O [DET, deoxyelephantopin, reference compound]
2. C=C1C(=O)O[C@H]2CC3=C[C@@H](C/C(C)=C/[C@@H](OC(=O)c4ccc(OC)cc4)[C@H]12)OC3=O

[out]
6.32
6.41

###

# Test system: NES-SA uterus cancer cell line
# Assay protocol: MTT cell viability assay, NES-SA
# Assay type: cell-based
# Cond: 24 h
Kindly supply the reported IC50 values for the records listed here.
Numbers only, in nM.

As a guide, the following entries are already answered.
C=C1C(=O)OC2CC3=C[C@@H](C/C(C)=C/C(OC(=O)/C=C/c4cccc(OC)c4)[C@H]12)OC3=O (some centres unmarked) [DETD-39]; 140
C=C1C(=O)O[C@H]2CC3=C[C@@H](C/C(C)=C/[C@@H](OC(=O)/C=C/c4ccccc4)[C@H]12)OC3=O [DETD-6]; 420
C=C(C)C(=O)O[C@H]1CC2=C[C@@H](C/C(C)=C/[C@H]3OC(=O)C(=C)[C@H]13)OC2=O [DET, deoxyelephantopin, reference compound]; 900
C=C1C(=O)O[C@H]2CC3=C[C@@H](C/C(C)=C/[C@@H](OC(=O)c4ccc(OC)cc4)[C@H]12)OC3=O [DETD-32]; 500

Could you now look at the following compound, please?
Field IC50 (entry C=C1C(=O)O[C@H]2CC3=C[C@@H](C/C(C)=C/[C@@H](OC(=O)Cc4cccc5ccccc45)[C@H]12)OC3=O [DETD-35] ) reads 340
